experiment: NCI Yeast Anticancer Drug Screen. Data for the mec2-1 strain (AID 157); conditions: S. cerevisiae mec2-1 strain, at 11.0 µM, active compounds read high
The panel holds about 79,000 compounds, 15% with a hit somewhere; the sample as a whole holds those more often.
growth inhibition for assorted compounds
# value in %; strip the unit string

// below: answered compounds
CN(C)C=NC1CCC(C(C)(C)C)CC1 (stereo unspecified)	10
COC(=O)/C=C(/CC(=O)OC)C(=O)OC	1
Nc1ccc2c(c1)C(=O)c1ccc(F)cc1-2	11
O=C(Oc1ccc2c(c1)CN(Cc1ccccc1)CO2)c1ccccc1	3
CC1(C)CC(=O)C(/C=N/c2nc(-c3ccccc3)cs2)=C(O)C1	8

Next:
Respond only with growth inhibition recorded for `N#CC(C#N)=NNc1ccc(S(=O)(=O)O)cc1` -29

----------
growth inhibition for assorted compounds
test: NCI Yeast Anticancer Drug Screen. Data for the wt2 strain (AID 169);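 further: 0% = growth of vehicle-treated yeast cultures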; conditions: S. cerevisiae wt2 strain growth inhibition; at 1.2 µM; active compounds read high
About 79,000 compounds went through this panel and 15% of them were active in at least one assay; those are over-represented in the sample as a whole.
# value in %; strip the unit string

// below: answered compounds
CCCCC(CC)C(=O)[O][Sn]([CH2]CCC)([CH2]CCC)[O]C(=O)C(CC)CCCC (stereo unspecified)	-27
Nc1nc(N)c2nc(CNc3ccc(C(=O)NC(CCC(=O)O)C(=O)O)cc3F)cnc2n1 (stereo unspecified)	-19
Cc1c(C(C)C)cc(OCCO)cc1C(C)C	-4
O=C(O)c1cc2ccc(Cl)cc2c(O)c1C1=CCCCC1	5
Cc1cc2c3ccccc3c3ccccc3c2nn1	-4
CN(C)C=NC1CCC(C(C)(C)C)CC1 (stereo unspecified)	0
CC[N+](CC)(CC)c1ccccc1	-23
CC(=O)Nc1ccc2c(c1)Cc1cc(N=C3C=CC(=O)O3)ccc1-2	0

Respond only with growth inhibition recorded for C[Si](C)(C)/C=C/CCNC(C#N)c1ccccc1 (stereo unspecified) -9

Respond only with growth inhibition recorded for `CNCCCNc1c2ccccc2nc2cccc([N+](=O)[O-])c12` 2

Respond only with growth inhibition recorded for `COC1=C(OC)C(=O)C(Sc2ccc3ccccc3c2)=CC1=O` -35

Respond only with growth inhibition recorded for `COC(=O)Nc1cn2ccc(C(Cl)=C(Cl)Cl)cc2n1` -40

Respond only with growth inhibition recorded for COC(=O)CC1CCc2c(ccc3ccccc23)C1(C)C(=O)OC (stereo unspecified) 1

Respond only with growth inhibition recorded for `CCCC/C=C/C(C)(C(=O)OCC)C(=O)OCC` -4

Respond only with growth inhibition recorded for CCCC(O)C1CC(C(C)C)CCC1C (stereo unspecified) -1

Respond only with growth inhibition recorded for CC(=O)OCC1OC2OC(=O)NC2C(OC(C)=O)C1OC(C)=O (stereo unspecified) -3

----------
Assay: NCI Yeast Anticancer Drug Screen. Data for the mgt1 strain (AID 153)
Settings: S. cerevisiae mgt1 mutant growth inhibition; at 33.0 µM; active compounds read high
Method: Growth inhibition of yeast strains with defined genetic alterations is measured as a screen for potential anti-cancer activity. Selected strains with alterations in DNA damage repair or cell cycle control were exposed to compounds and growth inhibition was measured relative to vehicle treated controls. The strain used in this assay is mgt1
The panel holds about 79,000 compounds, 15% with a hit somewhere; the sample as a whole holds those more often. The source made the active and inactive calls. Rule as the data show it: active = growth inhibition above about 70%; inactive = the rest.
observationType: growth inhibition

// below: answered compounds
CCOC(=O)/C(=C\c1ccc(C#N)cc1)C(C)=O	95% (active)
O=C1NC(SSC2=NNC3(C(=O)N2)c2ccccc2-c2ccccc23)=NNC12c1ccccc1-c1ccccc12	-10% (inactive)

Next:
Respond only with growth inhibition recorded for `Cc1c2ccnc(C(=O)NCCN(C)C)c2cc2c3cc(O)ccc3n(C)c12` 10% (inactive)
